target: Recombinant p62 protein (Homo sapiens, UniProt Q13501); construct: Recombinant p62 protein was buffer exchanged into Biacore SPR running buffer; assay: Surface plasmon resonance (SPR) compound binding to immobilised p62; settings: recombinant p62, 15° C
Sequence (Q13501 whole entry, species assumed): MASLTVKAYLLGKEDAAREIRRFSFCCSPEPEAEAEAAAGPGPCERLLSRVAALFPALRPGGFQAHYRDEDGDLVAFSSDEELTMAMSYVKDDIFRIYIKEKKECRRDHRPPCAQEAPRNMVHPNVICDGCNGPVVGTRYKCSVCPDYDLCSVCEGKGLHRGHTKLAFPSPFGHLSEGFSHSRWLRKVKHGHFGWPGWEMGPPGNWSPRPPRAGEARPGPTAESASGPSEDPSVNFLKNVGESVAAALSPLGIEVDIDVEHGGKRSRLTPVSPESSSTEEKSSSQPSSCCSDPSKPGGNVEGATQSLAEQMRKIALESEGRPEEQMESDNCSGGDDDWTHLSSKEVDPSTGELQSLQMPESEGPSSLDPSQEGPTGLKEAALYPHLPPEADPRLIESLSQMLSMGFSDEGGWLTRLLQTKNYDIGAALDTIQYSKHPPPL
receptor occupancy at 100 µM by entry:

Solved cases (4 shown):
| molecule | system | measured-value |
| --- | --- | --- |
| O=C(c1cc2ccc(CNCCO)cc2o1)N1CCCCC1 | Recombinant p62 protein (Homo sapiens, UniProt Q13501) | < 30% |
| OCCNCc1ccc2cc(CNC3CCOCC3)oc2c1 | Recombinant p62 protein (Homo sapiens, UniProt Q13501) | < 30% |
| O=C(NCCO)c1ccc2cc(CCc3ccc(F)cc3)oc2c1 | Recombinant p62 protein (Homo sapiens, UniProt Q13501) | < 30% |
| OCCNCc1ccc2nc(Cc3ccccc3)oc2c1 | Recombinant p62 protein (Homo sapiens, UniProt Q13501) | < 30% |

Field: next molecule
Requested read-out: receptor occupancy at 100 µM. Entry: CC(C)NCC(O)COc1ccc2cc(Cc3ccccc3)oc2c1 (centres unmarked)
> 70%
